Molecular target: Cytochrome P450 2C19 (Homo sapiens) (UniProt P33261)
Sequence (P33261 whole entry, looked up): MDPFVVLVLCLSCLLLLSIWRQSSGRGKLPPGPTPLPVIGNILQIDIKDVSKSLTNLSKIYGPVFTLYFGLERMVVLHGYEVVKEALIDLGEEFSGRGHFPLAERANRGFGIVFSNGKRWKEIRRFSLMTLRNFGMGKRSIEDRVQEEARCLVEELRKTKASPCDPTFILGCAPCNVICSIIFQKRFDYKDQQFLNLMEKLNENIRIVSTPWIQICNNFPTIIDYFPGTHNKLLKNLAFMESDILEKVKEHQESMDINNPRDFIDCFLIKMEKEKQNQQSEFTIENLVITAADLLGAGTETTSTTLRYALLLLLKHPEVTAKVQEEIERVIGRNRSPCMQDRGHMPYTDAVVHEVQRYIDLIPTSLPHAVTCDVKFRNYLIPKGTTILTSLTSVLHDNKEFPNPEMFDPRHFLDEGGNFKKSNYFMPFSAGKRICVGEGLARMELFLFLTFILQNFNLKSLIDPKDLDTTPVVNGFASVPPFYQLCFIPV
Assay: qHTS for inhibitors of CYP2C19 against the NCATS DSHEA and TCM libraries (AID 1919974);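 note: luminescence from luciferin released by CYP2C19 oxidation of a pro-luciferin substrate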
Settings: CYP2C19 enzyme inhibition, luminescence qHTS; series mostly up to 34.1 µM
Records with an inconclusive call do not appear. Calls of active or inactive are those of the source. Calls come from the whole dose curve; as a rule, active = well fitted inhibition curve with a large enough effect; inconclusive = small, poorly fitted or top-dose-only effect; inactive = no such curve, though single readings can be large or run the other way.
Allowed answers: active, inactive

These recorded examples may help you get a feel for the data.
input: Test call for this molecule, please: C=C1C[C@@]23CC[C@H]4[C@@](C)(CCC[C@@]4(C)C(=O)O[C@@H]4O[C@H](CO)[C@@H](O)[C@H](O)[C@H]4O)[C@@H]2CC[C@]1(O[C@@H]1O[C@H](CO)[C@@H](O)[C@H](O[C@@H]2O[C@H](CO)[C@@H](O)[C@H](O)[C@H]2O)[C@H]1O[C@@H]1O[C@@H](C)[C@H](O)[C@@H](O)[C@H]1O)C3
output: inactive

input: Test call for this molecule, please: CCCCCCCCCCCCCC(=O)O
output: inactive

input: Test call for this molecule, please: O=C(/C=C/c1ccc(O)c2c1[C@H](C(=O)O)[C@@H](c1ccc(O)c(O)c1)O2)O[C@H](Cc1ccc(O)c(O)c1)C(=O)O
output: inactive

input: Test call for this molecule, please: C=C1C[C@@]23CC[C@H]4[C@@](C)(CCC[C@@]4(C)C(=O)O[C@@H]4O[C@H](CO)[C@@H](O)[C@H](O)[C@H]4O[C@@H]4O[C@H](CO)[C@@H](O)[C@H](O)[C@H]4O)[C@@H]2CC[C@]1(O[C@@H]1O[C@H](CO)[C@@H](O)[C@H](O)[C@H]1O[C@@H]1O[C@H](CO)[C@@H](O)[C@H](O)[C@H]1O)C3
output: inactive

input: Test call for this molecule, please: CC(=O)O[C@@H]1CC[C@@]2(C)[C@@H](CC[C@]3(C)[C@@H]2C(=O)C=C2[C@@H]4[C@@H](C)[C@H](C)CC[C@]4(C)CC[C@]23C)[C@@]1(C)C(=O)O
output: active

More entries:
input: Test call for this molecule, please: CCCCCCC/C=C/C(=O)CCc1ccc(O)c(OC)c1
output: active

input: Test call for this molecule, please: O=C(/C=C/c1ccc(O)c(O)c1)O[C@@H]1CC(C(=O)O)=C[C@@H](O)[C@H]1O
output: inactive

----------
Tested on: CP201
Assay: qHTS profiling for inhibitors of Plasmodium falciparum proliferation (AID 504749); note: nearly all actives have a fitted effect of over 60% in size; note: potency is the fitted concentration of half-maximal effect
Conditions: P. falciparum in erythrocytes, SYBR Green DNA, 72 h; series mostly up to 28.7 µM
Records with an inconclusive call do not appear. Calls of active or inactive are those of the source. The call rests on the fitted dose curve; in most records, active means well fitted inhibition curve with a large enough effect; inconclusive means small, poorly fitted or top-dose-only effect; inactive means flat fitted curve, though single readings scatter.
property_label: Potency

Example results:
Noted for C/C=C\c1ccc(OC)cc1 : its Potency reads inactive

Noted for NC1=NC(S)C2N=CN=C2N1 (stereo not given) : its Potency reads inactive

Noted for CC(C)CN(C[C@@H](OP(=O)(O)O)[C@H](Cc1ccccc1)NC(=O)O[C@@H]1CCOC1)S(=O)(=O)c1ccc(N)cc1 : its Potency reads inactive

Noted for Cc1cc(CC(C)CC(C)(C)C)n(O)c(=O)c1 (stereo not given) : its Potency reads 4.78 µM (active)

Attention now turns to another entry.
Noted for CCC(C)n1ncn(-c2ccc(N3CCN(c4ccc(OCC5COC(Cn6cncn6)(c6ccc(Cl)cc6Cl)O5)cc4)CC3)cc2)c1=O (stereo not given) : its Potency reads inactive

----------
Assay: Cell Viability - LYMP2-008 (AID 980); note: nearly all actives have a fitted effect of over 60% in size
Conditions: LYMP2-008 lymphoblastoid cell viability, qHTS; series mostly up to 92.2 µM
Results filed as inconclusive are left out. Calls of active or inactive are those of the source. Calls come from the whole dose curve; as a rule, active = well fitted cell-killing curve with a large enough effect; inconclusive = small, poorly fitted or top-dose-only effect; inactive = flat fitted curve, though single readings scatter.
Allowed answers: TRUE for active, FALSE for inactive

These recorded examples may help you get a feel for the data.
input: Test call for this compound, please: O=C(O)c1ccccc1C(c1ccc(O)cc1)c1ccc(O)cc1
output: FALSE

input: Test call for this compound, please: O=[N+]([O-])c1cccc(Cl)c1Cl
output: FALSE

input: Test call for this compound, please: c1ccc2c(c1)[nH]c1ccccc12
output: FALSE

input: Test call for this compound, please: O=NO
output: FALSE

input: Test call for this compound, please: C=CC(=O)OCCOCCOCCOCCOC(=O)C=C
output: TRUE

input: Test call for this compound, please: C=Cc1ccccc1Cl
output: FALSE

input: Test call for this compound, please: CCCCCCCCCCCCCCC1CO1 (configuration not stated)
output: FALSE

input: Test call for this compound, please: C=C(C)C1CC=C(C)C(O)C1 (configuration not stated)
output: FALSE

input: Test call for this compound, please: Cc1ccc(N)c([N+](=O)[O-])c1
output: FALSE

input: Test call for this compound, please: CC12CCC(CC1=O)C2(C)C (configuration not stated)
output: FALSE

Turning to the following compound.
input: Test call for this compound, please: O=C(/C=C/c1ccc(O)c(O)c1)O[C@@H](C(=O)O)[C@@H](OC(=O)/C=C/c1ccc(O)c(O)c1)C(=O)O
output: FALSE

----------
Biological target: Rap guanine nucleotide exchange factor 3 (Homo sapiens)
Experiment: Confirmatory qHTS for agonist of cAMP-regulated guanine nucleotide exchange factor 3 (EPAC1) (AID 1645881); note: nearly all actives have a fitted effect of over 75% in size;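 for activation: EPAC1 catalysed release of BODIPY-GDP from Rap1B seen as fluorescence loss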
Conditions: EPAC1 Rap1B BODIPY-GDP exchange fluorescence; series mostly up to 154 µM
Results filed as inconclusive are left out. Active and inactive are the calls of the source. Calls follow the shape of the dose curve; as a rule, active = well fitted activation curve with a large enough effect; inconclusive = small, poorly fitted or top-dose-only effect; inactive = no such curve, though single readings can be large or run the other way.
Allowed answers: active, inactive

input: Test call for this molecule, please: COC(=O)[C@@H](NC(=O)Nc1ccc2c(c1)OCCO2)C(C)C
output: inactive

input: Test call for this molecule, please: CC1=C(C(=O)OCc2ccccc2)C(c2ccc(C(C)(C)C)cc2)NC(=O)N1CCCCCC(=O)O (stereo unspecified)
output: inactive

input: Test call for this molecule, please: Cc1cc(C)c(Nc2cc(S(=O)(=O)O)c(N)c3c2C(=O)c2ccccc2C3=O)c(C)c1
output: inactive

input: Test call for this molecule, please: Cc1ccc(C2N(c3cccc(Cl)c3)C(=O)N3CCCN23)cc1 (stereo unspecified)
output: inactive

input: Test call for this molecule, please: Cc1[nH]c(=O)nc(SCc2cccc(Cl)c2)c1C#N
output: inactive

input: Test call for this molecule, please: COc1ccccc1Oc1ncnc2c1oc1ccccc12
output: inactive

input: Test call for this molecule, please: COc1ccccc1-c1nc2ccccc2n(CC(C)C)c1=O
output: inactive

input: Test call for this molecule, please: O=S1(=O)CCOC[C@H](CC2CCCCC2)N1Cc1cccc(C(F)(F)F)c1
output: inactive

input: Test call for this molecule, please: c1ccc(CNc2c(-c3cccc(SC4CCCCC4)c3)nc3ccccn23)cc1
output: inactive

input: Test call for this molecule, please: Nc1ccc2cc3[nH]c4cc(N)ccc4c3nc2c1
output: active

Turning to the following molecule.
input: Test call for this molecule, please: O=C(Nc1ccc(Cl)cc1)Nc1ccccc1NS(=O)(=O)c1cccs1
output: inactive

----------
Target: Glucocorticoid receptor (Homo sapiens) (UniProt P04150)
Sequence (P04150 whole entry, looked up): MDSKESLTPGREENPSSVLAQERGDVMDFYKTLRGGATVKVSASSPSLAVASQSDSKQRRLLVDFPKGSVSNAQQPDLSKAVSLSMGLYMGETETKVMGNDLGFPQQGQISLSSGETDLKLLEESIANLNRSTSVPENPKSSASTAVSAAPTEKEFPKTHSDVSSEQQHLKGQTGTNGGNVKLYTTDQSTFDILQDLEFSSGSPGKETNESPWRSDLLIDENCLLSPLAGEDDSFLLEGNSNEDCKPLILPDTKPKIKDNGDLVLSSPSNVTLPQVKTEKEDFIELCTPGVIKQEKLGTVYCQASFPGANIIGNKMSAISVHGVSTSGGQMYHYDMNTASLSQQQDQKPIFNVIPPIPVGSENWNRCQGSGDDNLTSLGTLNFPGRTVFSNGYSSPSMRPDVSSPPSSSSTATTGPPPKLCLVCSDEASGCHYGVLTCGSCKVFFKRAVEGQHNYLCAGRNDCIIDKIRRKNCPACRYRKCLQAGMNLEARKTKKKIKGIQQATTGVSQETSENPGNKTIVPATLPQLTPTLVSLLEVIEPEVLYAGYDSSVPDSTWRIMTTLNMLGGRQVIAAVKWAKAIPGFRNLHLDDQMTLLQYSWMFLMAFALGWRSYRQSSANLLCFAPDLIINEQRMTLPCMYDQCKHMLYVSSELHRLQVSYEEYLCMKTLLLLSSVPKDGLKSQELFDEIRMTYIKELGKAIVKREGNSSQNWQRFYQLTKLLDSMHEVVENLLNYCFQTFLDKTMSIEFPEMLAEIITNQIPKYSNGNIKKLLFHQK
Assay: GR-GFP Redistribution (AID 450); note: potency is the fitted concentration of half-maximal effect
Details: U2OS GR-GFP nuclear translocation, laser cytometry, 2 h
Active and inactive are the calls of the source.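 How the source made its calls: active means compounds whose dose series gives a full or clear partial fitted curve of increased nuclear translocation; inconclusive means weak partial curve or effect only at the top dose; inactive means no dose-dependent translocation response.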
property_label: Potency

Give Potency for each of the items listed below.
1. c1ccc(NN(Cc2cnccn2)c2ccccc2)cc1
2. O=c1c(CCc2ccccc2)nc2cnc(N3CCNCC3)nc2n1-c1ccccc1
3. COC(=O)C1CCN(c2nc3ccccc3nc2C(C#N)C(=O)NCCc2ccccc2)CC1 (configuration not stated)
4. COc1ccc2[nH]cc(CCNc3nc(-c4c(C)noc4C)nc4ccccc34)c2c1

output:
["> 46 µM (inactive)", "> 9.22 µM (inactive)", "> 20.6 µM (inactive)", "> 46 µM (inactive)"]

----------
Molecular target: Rap guanine nucleotide exchange factor 3 (Homo sapiens) (UniProt O95398)
Sequence (O95398 whole entry, looked up): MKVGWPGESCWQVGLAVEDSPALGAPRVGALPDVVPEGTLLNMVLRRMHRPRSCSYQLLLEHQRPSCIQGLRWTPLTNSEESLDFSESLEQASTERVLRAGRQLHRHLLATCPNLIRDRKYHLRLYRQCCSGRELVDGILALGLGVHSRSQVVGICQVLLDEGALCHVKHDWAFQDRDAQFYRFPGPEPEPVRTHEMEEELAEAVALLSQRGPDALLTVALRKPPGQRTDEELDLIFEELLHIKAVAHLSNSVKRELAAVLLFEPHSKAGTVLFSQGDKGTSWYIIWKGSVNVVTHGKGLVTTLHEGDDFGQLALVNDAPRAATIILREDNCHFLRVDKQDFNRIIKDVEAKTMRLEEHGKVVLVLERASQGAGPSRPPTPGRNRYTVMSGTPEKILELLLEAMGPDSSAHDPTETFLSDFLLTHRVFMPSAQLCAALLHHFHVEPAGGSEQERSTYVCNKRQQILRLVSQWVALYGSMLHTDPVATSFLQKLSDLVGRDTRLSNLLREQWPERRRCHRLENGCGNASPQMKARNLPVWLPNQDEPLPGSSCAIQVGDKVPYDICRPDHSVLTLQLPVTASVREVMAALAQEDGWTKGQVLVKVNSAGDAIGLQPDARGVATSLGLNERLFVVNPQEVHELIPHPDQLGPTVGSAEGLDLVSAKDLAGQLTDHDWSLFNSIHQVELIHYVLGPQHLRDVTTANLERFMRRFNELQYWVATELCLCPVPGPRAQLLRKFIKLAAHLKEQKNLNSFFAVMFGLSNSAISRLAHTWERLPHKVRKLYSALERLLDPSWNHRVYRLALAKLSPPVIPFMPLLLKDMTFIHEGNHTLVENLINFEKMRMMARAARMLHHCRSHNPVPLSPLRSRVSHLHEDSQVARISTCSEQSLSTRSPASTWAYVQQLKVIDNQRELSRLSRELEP
Test: Confirmatory qHTS for agonist of cAMP-regulated guanine nucleotide exchange factor 3 (EPAC1) (AID 1645881); note: nearly all actives have a fitted effect of over 75% in size;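 for activation: EPAC1 catalysed release of BODIPY-GDP from Rap1B seen as fluorescence loss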
Settings: EPAC1 Rap1B BODIPY-GDP exchange fluorescence; series mostly up to 154 µM
Inconclusive results are not listed. Calls of active or inactive are those of the source. Calls follow the shape of the dose curve; as a rule, active = well fitted activation curve with a large enough effect; inconclusive = small, poorly fitted or top-dose-only effect; inactive = no such curve, though single readings can be large or run the other way.
Allowed answers: true (active), false (inactive)

These recorded examples may help you get a feel for the data.
input: Test call for this compound, please: Cc1ccc(C(=O)NCCCNC(=O)c2ccc(Cl)cc2)cn1
output: false

input: Test call for this compound, please: CCOCCCn1c(=N)c(S(=O)(=O)c2ccccc2)cc2c(=O)n3cc(C)ccc3nc21
output: false

input: Test call for this compound, please: Cc1ccc(C2CC(c3cccs3)=NN2C(=O)CSc2nc(=O)n3cc(C)ccc3n2)cc1 (centres undefined)
output: false

input: Test call for this compound, please: Cc1ccc2c(c1)C(=O)CC(c1ccccc1)S2 (centres undefined)
output: false

input: Test call for this compound, please: CCOc1ccc(/C=C/C(=O)c2c(O)c3ccccc3oc2=O)cc1
output: false

Turning to the following compound.
input: Test call for this compound, please: Cn1c(=O)c2c(nc(NCCc3ccccc3)n2CC(=O)NCCc2ccccc2)n(C)c1=O
output: false
